Tested on: 138582-337-R-J1-PDC spheroids with HUVEC/MSC, viability;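 note: spheroids exposed to compounds for seven days; 100% = DMSO vehicle control viability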
Assay: Anticancer human tumor 138582-337-R-J1-PDC patient-derived Merkel cell tumor cell line growth inhibition [IpAb]
Details: second compound 0.316 µM; first compound 3.16 µM; hits give low values
Experimental: Combinatorial screen of targeted agents with ipatasertib and abemaciclib in multi-cell type tumor spheroids […] Compounds. […] If the clinical Cmax for an agent had not been determined, the highest concentration tested was 10 microM. NCI60 Cell Culture. […] The optimal seeding densities for each of the cell lines at each time point assessed were determined prior to performing the concentration response studies. […]
Consider the following compounds; for each one, report its viability, T/C.

// field: viability, T/C; key: CC1(C)CCC(CN2CCN(c3ccc(C(=O)NS(=O)(=O)c4ccc(NCC5CCOCC5)c([N+](=O)[O-])c4)c(Oc4cnc5[nH]ccc5c4)c3)CC2)=C(c2ccc(Cl)cc2)C1 + CC(C)NCC(C(=O)N1CCN(c2ncnc3c2C(C)CC3O)CC1)c1ccc(Cl)cc1 ; value = 63.3%

// field: viability, T/C; key: Cc1nc(NC(=O)N2CCCC2C(N)=O)sc1-c1ccnc(C(C)(C)C(F)(F)F)c1 (stereo not drawn) + CCN1CCN(Cc2ccc(Nc3ncc(F)c(-c4cc(F)c5nc(C)n(C(C)C)c5c4)n3)nc2)CC1 ; value = 32.1%

// field: viability, T/C; key: Cc1nc(NC(=O)N2CCCC2C(N)=O)sc1-c1ccnc(C(C)(C)C(F)(F)F)c1 (stereo not drawn) + CC(C)NCC(C(=O)N1CCN(c2ncnc3c2C(C)CC3O)CC1)c1ccc(Cl)cc1 ; value = 45.7%

Origin of values: PubChem BioAssay AID2060343
